Some molecules, each annotated with its measured growth.
System: BT-549 breast
Experiment: NCI-60 one-dose screen, 48 h (100 = growth as untreated, 0 = no growth, -100 = all killed)
Details: 10 µM
About 83,000 compounds went through this panel and 20% of them were active in at least one assay; those are over-represented in the sample as a whole.

Molecule | growth (%)
CNC(=S)NC(C)(C)C | 89.5
c1cc2cccc3c4cccc5cccc(c(c1)c23)c54 | 104
CC(C(=O)O)(C1CCCCC1)C1(O)CCCCC1 (centres undefined) | 103
COC(=O)c1[nH]c(=O)c(C#N)c(C(=O)OC)c1C(=O)c1ccccc1 | 110
c1ncc2[nH]cnc2n1 | 106
O=[N+]([O-])c1ccc(/C=C/C=C/c2ccccc2)c(Cl)c1 | 102
N#Cc1ccc(OC(=O)Nc2ccc(Cl)c(Cl)c2)cc1 | 93.3
C/C(=C\c1cc(Cl)ccc1OCC(=O)O)[N+](=O)[O-] | 117
Cn1cnc2nc(Cl)nc(Cl)c21 | -28.5
O=C(O)C(c1ccccc1)C(O)c1ccccc1 (centres undefined) | 110
Nc1ccc(CC(=O)O)c(N)c1 | 105
CCCCCCCCCCC1CO1 (centres undefined) | 109
CCCCNC(=O)C(=O)NCCCC | 98.8
C=CCNc1ccccc1 | 99
